Assignment: determine reported relative viability EC50 for the given compounds.
# Test system: Caco-2
# Method Summary: relative viability EC50 (midpoint between 100% and the lowest measured viability); higher = less toxic
# Condition Details: 72 h

Suppose we examine the compound FC(F)(F)c1ccc(Nc2ncnc3cc(-c4ncccc4C(F)(F)F)ccc23)cc1 ; what relative viability EC50 value has been reported?
> 10 µM

Suppose we examine the compound COc1ccc(CNC(=O)c2sc3nc(C)cc(C)c3c2N)cc1 ; what relative viability EC50 value has been reported?
> 10 µM

Suppose we examine the compound COc1ccc(Nc2ncnc3ccc(OC)cc23)cc1 ; what relative viability EC50 value has been reported?
> 10 µM

Suppose we examine the compound CCCC(=O)Nc1ncnc2c1ncn2[C@@H]1O[C@@H]2COP(=O)(O)O[C@H]2[C@H]1OC(=O)CCC ; what relative viability EC50 value has been reported?
> 10 µM

Suppose we examine the compound CCCCCCc1ccc(O)cc1O.Nc1c2ccccc2nc2ccccc12 ; what relative viability EC50 value has been reported?
2.66 µM
